Attribution: ChEMBL document CHEMBL1201862

Below, each entry is listed with its recorded AC50.
Target: DNA repair protein RAD52 homolog (Homo sapiens)
Sequence (P43351 whole entry): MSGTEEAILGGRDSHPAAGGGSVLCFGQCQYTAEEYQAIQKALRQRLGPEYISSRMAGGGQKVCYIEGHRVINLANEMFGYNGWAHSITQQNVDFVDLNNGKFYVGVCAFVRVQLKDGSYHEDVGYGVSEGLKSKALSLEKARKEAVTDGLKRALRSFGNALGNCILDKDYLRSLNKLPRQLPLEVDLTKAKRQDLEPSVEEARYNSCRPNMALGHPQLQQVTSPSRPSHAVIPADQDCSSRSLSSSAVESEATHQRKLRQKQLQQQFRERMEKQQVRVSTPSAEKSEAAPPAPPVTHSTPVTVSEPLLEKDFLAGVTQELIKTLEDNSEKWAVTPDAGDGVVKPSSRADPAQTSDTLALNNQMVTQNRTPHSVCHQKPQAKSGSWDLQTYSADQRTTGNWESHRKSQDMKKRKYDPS
Format: functional, biochemical
The source made the active and inactive calls.

COc1ccc(-c2c(-c3ccccc3)c(C(=O)C(=O)NCCCN(C)C)n3ccc4cc(OC)c(OC)cc4c23)cc1OC = 3.15 µM (active)
Cc1ccc(-c2nc3cc(C(=O)NCCCn4ccnc4)ccc3c(O)c2O)cc1 = 7.05 µM (active)
O=C(c1ccc(Cn2c(=S)[nH]c3ccc(N4CCOCC4)cc3c2=O)cc1)N1CCC(N2CCCCC2)CC1 = 13.9 µM (active)
COc1ccc2nc3cc(Cl)ccc3c(Nc3ccc(O)c(CN4CCN(C)CC4)c3)c2c1 = < 0.15 µM (active)

Here is the next item to consider.
**Q:** State, in one line, measured AC50 of COc1ccc(OC)c2sc(N(CCN(C)C)C(=O)/C=C/c3cccs3)nc12
**A:** 10.6 µM (active)
